tested on: Klebsiella pneumoniae; assay: Antibacterial activity against drug-resistant Klebsiella pneumoniae by broth microdilution method; format: functional
Measured metric: MIC (µg/mL)
Report the value in µg/mL with no unit label.

Input: Check the records and state MIC for CC[C@H]1OC(=O)[C@H](C)C(=O)[C@H](C)[C@@H](O[C@@H]2O[C@H](C)C[C@H](N(C)C)[C@H]2O)[C@](C)(OC)C[C@@H](C)C(=O)[C@@H](C)[C@H]2OC(=O)O[C@@]21C
Output: 128

Input: Return reported MIC. Input compound: CC[C@H]1OC(=O)[C@H](C)[C@@H](O[C@H]2C[C@@](C)(OC)[C@@H](O)[C@H](C)O2)[C@H](C)[C@@H](O[C@@H]2O[C@H](C)C[C@H](N(C)C)[C@H]2O)[C@](C)(OC)C[C@@H](C)C(=O)[C@H](C)[C@@H](O)[C@]1(C)O
Output: 64

Input: Hello, please tell me recorded MIC for this one: CC[C@H]1OC(=O)[C@H](C)C(=O)[C@H](C)[C@@H](O[C@@H]2O[C@H](C)C[C@H](N(C)C)[C@H]2O)[C@](C)(OC)C[C@@H](C)C(=O)[C@H](C)[C@H]2N(CCCCn3cnc(-c4cccnc4)c3)C(=O)O[C@]12C
Output: 16

====

test system: Escherichia coli; experiment: Antibacterial activity against Escherichia coli ATCC 35218 by broth microdilution method; assay type: functional
Reported MIC values for the following compounds.
Quick reminder: number only, in µg/mL, skip the unit.

See these solved cases before continuing.
[
  {
    "Query smiles": "CC[C@H]1OC(=O)[C@H](C)[C@@H](O[C@H]2C[C@@](C)(OC)[C@@H](O)[C@H](C)O2)[C@H](C)[C@@H](O[C@@H]2O[C@H](C)C[C@H](N(C)C)[C@H]2O)[C@](C)(OC)C[C@@H](C)C(=O)[C@H](C)[C@@H](O)[C@]1(C)O",
    "MIC, µg/mL": 32
  },
  {
    "Query smiles": "CC[C@H]1OC(=O)[C@H](C)C(=O)[C@H](C)[C@@H](O[C@@H]2O[C@H](C)C[C@H](N(C)C)[C@H]2O)[C@](C)(OC)C[C@@H](C)C(=O)[C@@H](C)[C@H]2OC(=O)O[C@@]21C",
    "MIC, µg/mL": 128
  }
]

Below: the item to evaluate.
Input: Supply measured MIC of CC[C@H]1OC(=O)[C@H](C)C(=O)[C@H](C)[C@@H](O[C@@H]2O[C@H](C)C[C@H](N(C)C)[C@H]2O)[C@](C)(OC)C[C@@H](C)C(=O)[C@H](C)[C@H]2N(CCCCn3cnc(-c4cccnc4)c3)C(=O)O[C@]12C in your reply.
Output: 8

====

tested on: Klebsiella pneumoniae; assay: Antibacterial activity against drug-resistant Klebsiella pneumoniae by broth microdilution method; assay type: functional
Measured metric: MIC

Illustrative cases are given below, each with its answer.
[
  {
    "Compound": "CC[C@H]1OC(=O)[C@H](C)C(=O)[C@H](C)[C@@H](O[C@@H]2O[C@H](C)C[C@H](N(C)C)[C@H]2O)[C@](C)(OC)C[C@@H](C)C(=O)[C@]2(C)O[C@H]2[C@]1(C)O",
    "MIC": "> 128 µg/mL"
  },
  {
    "Compound": "CC[C@H]1OC(=O)[C@H](C)C(=O)[C@H](C)[C@@H](O[C@@H]2O[C@H](C)C[C@H](N(C)C)[C@H]2O)[C@](C)(OC)C[C@@H](C)C(=O)[C@@](C)(O)[C@H]2OS(=O)O[C@]12C (stereo partly drawn)",
    "MIC": "> 128 µg/mL"
  }
]

Consider now this further compound.
Input: Please supply the value of reported MIC for the item CC[C@H]1OC(=O)[C@H](C)C(=O)[C@H](C)[C@@H](O[C@@H]2O[C@H](C)C[C@H](N(C)C)[C@H]2O)[C@](C)(OC)C[C@@H](C)C(=O)[C@@](C)(O)[C@H]2OC(=O)O[C@]12C
Output: > 128 µg/mL
